- System: Hs-578T
- method notes: Growth inhibition of human Hs 578T cells incubated for 48 hrs by sulforhodamine B assay
- Assay type: functional
# Lookup of reported TGI keyed by entry
Just the number please, in µM, no unit attached.

Solved cases (3 shown):
line notation | TGI, µM
CNC(=O)c1cc(Oc2ccc(NC(=O)Nc3ccc(Cl)c(C(F)(F)F)c3)cc2)ccn1 | 3.98
COc1cc2cc(Oc3ccc(NC(=O)Nc4cccc(C(F)(F)F)c4)cc3)c(C)nc2cc1OC | 4.22
COc1cc2cc(Oc3ccc(NC(=O)Nc4ccc(Cl)c(C(F)(F)F)c4)cc3)c(C)nc2cc1OC | 2.31

Which TGI reading was recorded for the compound `COc1cc2cc(Oc3ccc(NC(=O)Nc4cc(C(F)(F)F)cc(C(F)(F)F)c4)cc3)c(C)nc2cc1OC` ?
6.94

Look up TGI for this compound: `COc1cc2cc(Oc3ccc(NC(=O)Nc4ccc(Cl)c(Cl)c4)cc3)c(C)nc2cc1OC`
9.68

====

Recorded CC50 by entry
- Test system: NCI-H226
- method notes: Growth inhibition of human NCI-H226 cells incubated for 48 hrs by sulforhodamine B assay
- Type: functional
- condition info: NCI-H226, 48 h, read-out: LC50 (the source's name)
Field format: number, assumed µM, no unit text.

In the examples that follow, each entry is paired with its recorded CC50.
line notation | CC50 [µM]
COc1cc2cc(Oc3ccc(NC(=O)Nc4ccc(Cl)c(Cl)c4)cc3)c(C)nc2cc1OC | 35.8
COc1cc2cc(Oc3ccc(NC(=O)Nc4cc(C(F)(F)F)cc(C(F)(F)F)c4)cc3)c(C)nc2cc1OC | 8.53

# query: CC50 of entry `COc1cc2cc(Oc3ccc(NC(=O)Nc4cccc(C(F)(F)F)c4)cc3)c(C)nc2cc1OC`
28.8

====

- Tested on: OVCAR-5
- method notes: Growth inhibition of human OVCAR5 cells incubated for 48 hrs by sulforhodamine B assay
- Format: functional
- condition info: OVCAR-5, 48 h, read-out: LC50 (the source's name)
endpoint: CC50

line notation | CC50
Cc1nc2cc(O)c(O)cc2cc1Oc1ccc(NC(=O)Nc2ccc(Cl)c(Cl)c2)cc1 | > 32.5 µM
COc1cc2cc(Oc3ccc(NC(=O)Nc4ccc(Cl)c(Cl)c4)cc3)c(C)nc2cc1OC | > 100 µM

Need CC50, item `COc1cc2cc(Oc3ccc(NC(=O)Nc4cccc(C(F)(F)F)c4)cc3)c(C)nc2cc1OC`
> 50 µM

====

- Test system: MDA-MB-435
- method notes: Growth inhibition of human MDA-MB-435 cells assessed as cell growth at 10 uM incubated for 48 hrs by sulforhodamine B assay relative to control
- Format: functional
- condition info: MDA-MB-435, 48 h, read-out: Activity
Each entry below lists one item and its recorded growth at 10 µM value.
Form entry: value (%) — number only.

These recorded examples may help you get a feel for the data.
line notation | growth at 10 µM / %
COc1cc2cc(Oc3ccc(NC(=O)Nc4ccc(Cl)c(C(F)(F)F)c4)cc3)c(C)nc2cc1OC | -25.7
COc1cc2cc(Oc3ccc(NC(=O)Nc4ccc(C(F)(F)F)cc4)cc3)c(C)nc2cc1OC | 80.3
COc1cc2cc(Oc3ccc(NC(=O)Nc4ccc(C)cc4)cc3)c(C)nc2cc1OC | 107

# input for lookup
What measured growth at 10 µM goes with `COc1cc2cc(Oc3ccc(NC(=O)Nc4ccc(Cl)c(Cl)c4)cc3)c(C)nc2cc1OC` ?
12.3

====

- System: T47D
- method notes: Growth inhibition of human T47D cells incubated for 48 hrs by sulforhodamine B assay
- Assay type: functional
- condition info: read-out: LC50 (the source's name)
endpoint: CC50

line notation | endpoint | result
COc1cc2cc(Oc3ccc(NC(=O)Nc4ccc(Cl)c(C(F)(F)F)c4)cc3)c(C)nc2cc1OC | CC50 | > 32.5 µM
Cc1nc2cc(O)c(O)cc2cc1Oc1ccc(NC(=O)Nc2ccc(Cl)c(Cl)c2)cc1 | CC50 | > 32.5 µM

Then this compound:
So what's the measured CC50 for this one? `COc1cc2cc(Oc3ccc(NC(=O)Nc4cccc(C(F)(F)F)c4)cc3)c(C)nc2cc1OC`
> 50 µM

====

- System: SN12C
- method notes: Growth inhibition of human SN12C cells incubated for 48 hrs by sulforhodamine B assay
- Type: functional
- condition info: read-out: LC50 (the source's name)
endpoint: CC50

Solved entries:
line notation | tested on | CC50
Cc1nc2cc(O)c(O)cc2cc1Oc1ccc(NC(=O)Nc2ccc(Cl)c(Cl)c2)cc1 | SN12C | > 32.5 µM
COc1cc2cc(Oc3ccc(NC(=O)Nc4cccc(C(F)(F)F)c4)cc3)c(C)nc2cc1OC | SN12C | > 50 µM

# next compound below
Quick one: CC50 for `COc1cc2cc(Oc3ccc(NC(=O)Nc4ccc(Cl)c(Cl)c4)cc3)c(C)nc2cc1OC` ?
> 100 µM
